Numbers sourced from patent US20240018145A1.

Parameter log10(EC50): see the listing below.
test system: FLU A (PR/8/34); assay: Flu A Neuraminidase Antiviral Assay; format: cell-based
ENDPOINT_NAME: log10(EC50) (log10 of the value in nM)

compound="CC1(c2ccccc2)CCCC2N(CC3CC3)C(=O)c3c(O)c(=O)ccn3N21 (single isomer, unassigned) [Compound 37A]" data_value=1.06
compound="COc1c2n(ccc1=O)N1C(c3ccccc3)C(SC(C)C)CCC1N(C)C2=O (centres unmarked) [Compound 146B]" data_value=2.37
compound="CCOC1CCC2N(C)C(=O)c3c(O)c(=O)ccn3N2C1c1ccccc1 (centres unmarked) [Compound 152A]" data_value=3.63
compound="CN1C(=O)c2c(O)c(=O)ccn2N2C(c3c(F)cccc3F)CCCC12 (single isomer, unassigned) [Compound 7B]" data_value=2.41
compound="CN1C(=O)c2c(O)c(=O)ccn2N2C1CCCC2(C)c1ccccc1F (single isomer, unassigned) [Compound 24B]" data_value=3.09
compound="CN1C(=O)c2c(O)c(=O)ccn2N2C(c3ccccc3)CCCC12 (single isomer, unassigned) [Compound 1B]" data_value=1.60
compound="CN1C(=O)c2c(O)c(=O)ccn2N2C1CCC1(CCC(F)(F)C1)C2c1ccccc1 (single isomer, unassigned) [Compound 68C]" data_value=1.06
compound="CN1C(=O)c2c(O)c(=O)ccn2N2C(c3cc(F)ccc3C(F)(F)F)CCCC12 (single isomer, unassigned) [Compound 13B]" data_value=2.89
compound="CN1C(=O)c2c(O)c(=O)ccn2N2C(c3ccccc3F)CCCC12 (single isomer, unassigned) [Compound 8B]" data_value=1.82
compound="CN1C(=O)c2c(O)c(=O)ccn2N2C(c3ccc(F)cc3)CCCC12 (single isomer, unassigned) [Compound 2A]" data_value=2.04
